study_target: GluN1/GluN2B receptors (Homo sapiens, UniProt Q05586+Q13224)
Sequence (Q13224 27-1484, other chains not shown): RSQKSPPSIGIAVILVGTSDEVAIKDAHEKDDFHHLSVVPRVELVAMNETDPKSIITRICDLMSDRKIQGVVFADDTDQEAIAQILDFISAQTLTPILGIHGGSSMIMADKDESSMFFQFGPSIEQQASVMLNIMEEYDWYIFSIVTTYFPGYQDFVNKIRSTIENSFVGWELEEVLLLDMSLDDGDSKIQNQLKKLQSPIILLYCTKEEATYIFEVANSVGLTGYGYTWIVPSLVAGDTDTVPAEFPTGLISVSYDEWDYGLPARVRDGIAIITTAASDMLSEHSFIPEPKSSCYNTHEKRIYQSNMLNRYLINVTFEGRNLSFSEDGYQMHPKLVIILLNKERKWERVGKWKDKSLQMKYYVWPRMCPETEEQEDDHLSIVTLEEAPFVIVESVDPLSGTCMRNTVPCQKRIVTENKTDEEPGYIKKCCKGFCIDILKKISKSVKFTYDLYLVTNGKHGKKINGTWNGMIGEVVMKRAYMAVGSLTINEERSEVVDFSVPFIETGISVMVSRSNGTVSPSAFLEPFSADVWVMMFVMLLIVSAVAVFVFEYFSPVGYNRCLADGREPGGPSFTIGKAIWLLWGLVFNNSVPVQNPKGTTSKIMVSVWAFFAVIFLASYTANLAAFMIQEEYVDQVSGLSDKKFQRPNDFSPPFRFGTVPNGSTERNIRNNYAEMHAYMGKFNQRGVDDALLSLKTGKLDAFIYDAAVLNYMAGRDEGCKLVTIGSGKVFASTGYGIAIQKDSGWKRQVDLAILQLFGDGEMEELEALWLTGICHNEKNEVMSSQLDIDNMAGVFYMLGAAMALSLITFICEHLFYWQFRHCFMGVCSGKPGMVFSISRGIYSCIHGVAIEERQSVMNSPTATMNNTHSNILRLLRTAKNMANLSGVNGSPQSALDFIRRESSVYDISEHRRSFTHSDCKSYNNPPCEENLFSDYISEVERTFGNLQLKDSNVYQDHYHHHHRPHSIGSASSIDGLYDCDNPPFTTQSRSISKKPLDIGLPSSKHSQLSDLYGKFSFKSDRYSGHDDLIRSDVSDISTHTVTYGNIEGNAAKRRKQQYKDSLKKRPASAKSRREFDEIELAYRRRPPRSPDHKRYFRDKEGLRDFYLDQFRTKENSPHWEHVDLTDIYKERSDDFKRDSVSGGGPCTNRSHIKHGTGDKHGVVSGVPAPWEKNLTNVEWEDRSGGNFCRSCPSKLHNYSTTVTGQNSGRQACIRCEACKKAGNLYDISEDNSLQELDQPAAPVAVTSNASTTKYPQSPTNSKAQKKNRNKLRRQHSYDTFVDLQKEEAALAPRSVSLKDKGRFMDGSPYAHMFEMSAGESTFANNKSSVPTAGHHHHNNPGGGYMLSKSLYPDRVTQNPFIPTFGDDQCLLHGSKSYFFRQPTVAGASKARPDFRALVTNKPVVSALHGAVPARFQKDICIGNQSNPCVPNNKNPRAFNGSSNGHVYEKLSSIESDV
assay_notes: IC50 of GluN1/GluN2B receptors expressed in Xenopus oocytes (two electrode voltage-clamp), human
Format: cell-based
experimental_parameters: pH 6.9, 50 μM glutamate, 30 μM glycine, read-out: Human pH 6.9 IC50
pIC50: −log10 of the molar value.
observable: pIC50

compound: O=C1CCc2cc(OCC3CCN(C(=O)OCc4ccc(Cl)cc4)CC3)ccc2N1 [Compound 11]
study_target: GluN1/GluN2B receptors (Homo sapiens, UniProt Q05586+Q13224)
experimental_result: 6.23

P = O=C1CCc2cc(OCC3CCN(C(=O)/C=C/c4ccc(Cl)c(Cl)c4)CC3)ccc2N1 [Compound 6]
Q = O=C1CCc2cc(OCC3CN(C(=O)Nc4ccc(Cl)c(Cl)c4)C3)ccc2N1 [Compound 23]
Query block: Of the two listed items, P and Q , which carries the larger pIC50 figure? Select an item and report its label.
Result block: Q
(Q: 7.72, P: 6.05)
